Where do these numbers come from? They come from the supplement of paper PMC3334620.

Target: Vhr1 (UniProt P40522)
Sequence: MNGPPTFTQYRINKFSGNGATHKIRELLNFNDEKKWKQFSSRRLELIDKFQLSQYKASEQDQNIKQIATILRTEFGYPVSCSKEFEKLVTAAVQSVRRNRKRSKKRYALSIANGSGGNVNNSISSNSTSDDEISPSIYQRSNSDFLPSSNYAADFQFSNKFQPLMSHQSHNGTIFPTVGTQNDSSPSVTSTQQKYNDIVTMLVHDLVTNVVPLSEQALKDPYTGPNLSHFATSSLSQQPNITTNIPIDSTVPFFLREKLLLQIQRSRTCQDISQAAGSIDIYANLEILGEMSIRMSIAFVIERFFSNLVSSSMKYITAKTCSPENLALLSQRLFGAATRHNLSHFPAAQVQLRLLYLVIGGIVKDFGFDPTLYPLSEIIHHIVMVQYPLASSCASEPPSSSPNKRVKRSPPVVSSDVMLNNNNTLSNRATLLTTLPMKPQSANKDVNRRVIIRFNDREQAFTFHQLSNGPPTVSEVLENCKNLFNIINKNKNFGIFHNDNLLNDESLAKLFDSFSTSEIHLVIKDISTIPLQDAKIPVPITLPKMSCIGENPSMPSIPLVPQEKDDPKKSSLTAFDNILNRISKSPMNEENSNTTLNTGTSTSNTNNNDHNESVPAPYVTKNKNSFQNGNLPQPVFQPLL
Assay: PBM E-score (8-mer binding enrichment) (E-score (-0.5 to 0.5)); higher = stronger / more preferred TF binding
Conditions: protein concentration: 200 nM; construct: GST-full length
Over roughly 33,000 sequences, “E-score (-0.5 to 0.5)” has its median near -0.012; the highest 2% begin near 0.27. Shown is part of a subset that was picked to be rich in the highest values.
Quick reference: PBM E-score of the listed items.
Property Name: PBM E-score

>>> experimental_result("AACAGCTC")
0.0178
>>> experimental_result("CAGGAATC")
0.313
>>> experimental_result("AATCACTC")
0.115
>>> experimental_result("CCGAATGC")
-0.0649
>>> experimental_result("ATAGTCAT")
0.411
>>> experimental_result("ATTCTTAC")
-0.00122
>>> experimental_result("TCATATGA")
0.381
>>> experimental_result("ATCCAGGG")
-0.0888
>>> experimental_result("ATTCAGCG")
-0.0101
>>> experimental_result("TAGCGTAA")
-0.0878
>>> experimental_result("AACCCCTA")
-0.0392
>>> experimental_result("ACATCTAC")
0.155
>>> experimental_result("AAGATTAC")
-0.0671
>>> experimental_result("AAAGTCAT")
0.256
>>> experimental_result("GACTACTA")
0.328
>>> experimental_result("CTCTCATC")
-0.131
>>> experimental_result("CATAATCA")
0.308
>>> experimental_result("GCTCTCAA")
-0.0323
>>> experimental_result("ACCCGCCG")
0.197
>>> experimental_result("ACTACTAC")
0.232
>>> experimental_result("CGTCAGCA")
-0.11
>>> experimental_result("ATATAGAA")
0.11
>>> experimental_result("GCATGCGA")
0.159
>>> experimental_result("ACTACCAT")
0.278
>>> experimental_result("GACTACAC")
0.315
>>> experimental_result("ACATGTGA")
0.0459
>>> experimental_result("CTACTATC")
0.277
>>> experimental_result("ACTCAGCC")
0.151
>>> experimental_result("ACGATTAC")
0.161
>>> experimental_result("GGTTTCTA")
-0.122
>>> experimental_result("ATGTCTCG")
0.135
>>> experimental_result("CACTACCA")
0.208
>>> experimental_result("CGATGGGA")
-0.0641
>>> experimental_result("CGTCACTC")
-0.0595
>>> experimental_result("CTAGTCAG")
0.247
>>> experimental_result("CTGATTTC")
-0.00794
>>> experimental_result("AATGTGGT")
0.115
>>> experimental_result("GTTAATCA")
0.296
>>> experimental_result("AAGCAAGT")
-0.0526
>>> experimental_result("TGAATCCA")
0.185
>>> experimental_result("ATAGTCTG")
-0.0734
>>> experimental_result("ACTACTAT")
0.325
>>> experimental_result("CTACTATA")
0.168
>>> experimental_result("ACTACAAT")
0.277
>>> experimental_result("GATGAATC")
0.249
>>> experimental_result("ACTACTAA")
0.0623
>>> experimental_result("AGGGTGGG")
0.282
>>> experimental_result("ATGTCTCC")
0.175
>>> experimental_result("GGATATGA")
0.289
>>> experimental_result("AGTCAGAG")
0.386
>>> experimental_result("ACATTCAT")
0.0173
>>> experimental_result("ATACTATC")
0.128
>>> experimental_result("GCTGCCAA")
-0.0372
>>> experimental_result("TACTACTA")
0.208
>>> experimental_result("CTGATTAA")
0.191
>>> experimental_result("AGTCACTC")
0.428
>>> experimental_result("CGATGGGC")
0.297
>>> experimental_result("ACGATGCT")
0.0556
>>> experimental_result("CTGGCTGA")
0.143
>>> experimental_result("ACATGTGG")
0.278
>>> experimental_result("GCACCCAA")
-0.0528
>>> experimental_result("CATGATTC")
0.424
>>> experimental_result("ACGTTCGC")
-0.141
>>> experimental_result("AGATGGGC")
-0.0228
>>> experimental_result("AGTCAGAT")
0.27
>>> experimental_result("GCAGTCAA")
0.0401
>>> experimental_result("GGCTGGTA")
0.0349
>>> experimental_result("AGGGTGGA")
0.0785
>>> experimental_result("AGTCAGCC")
0.402
>>> experimental_result("GACTACCC")
0.254
>>> experimental_result("ATAGTCAC")
0.41
>>> experimental_result("AACTATAC")
0.114
>>> experimental_result("ATGATTAG")
0.317
>>> experimental_result("GGTGGTCA")
0.00378
>>> experimental_result("ACTTAGGA")
-0.198
>>> experimental_result("GGTCAGCA")
0.15
>>> experimental_result("ATCATTAC")
0.274
>>> experimental_result("AAGCCACT")
-0.0197
>>> experimental_result("ACTCACTC")
0.254
>>> experimental_result("ACCCGCCC")
0.428
>>> experimental_result("CAGTTACG")
-0.125
>>> experimental_result("ACGATTAG")
0.045
>>> experimental_result("CGTCCCAC")
0.0371
>>> experimental_result("ACTACAAC")
0.212
>>> experimental_result("AGTCACTA")
0.366
>>> experimental_result("AACGAATC")
0.125
>>> experimental_result("CGATATGA")
0.125
>>> experimental_result("CTTAATCA")
0.214
>>> experimental_result("CGCGGTCC")
-0.137
>>> experimental_result("AGTGGTGC")
-0.0378
>>> experimental_result("GGTCACTA")
-0.0218
